FYI, the data here is from ChEMBL document CHEMBL1138579.

target: Human immunodeficiency virus type 1 reverse transcriptase (Human immunodeficiency virus 1); assay: Inhibition of HIV1 recombinant reverse transcriptase assessed as incorporation of [32P]GTP into poly(rC).oligo(dG) (rCdG) homopolymer template primer
ENDPOINT_NAME: log10 of IC50 (log10 of the value in µM)

- STRUCTURE_AS_SMILES: "COC(=O)CCC/C=C(/c1cc(C)c2onc(OC)c2c1)c1cc(C)c2oc(=O)n(C)c2c1"
  RECORDED_RESULT: -0.60
- STRUCTURE_AS_SMILES: "COc1noc2c(C)cc(C(=CCCN3CCOC3=O)c3cc(C)c4onc(OC)c4c3)cc12"
  RECORDED_RESULT: -0.03
- STRUCTURE_AS_SMILES: "COc1noc2c(C)cc(/C(=C\\CCN3CCOC3=O)c3cc(C)c4oc(=O)n(C)c4c3)cc12"
  RECORDED_RESULT: 0.56
- STRUCTURE_AS_SMILES: "COc1noc2c(C)cc(/C(=C\\CCN3CCOC3=O)c3cccc(C#N)c3)cc12"
  RECORDED_RESULT: 1.59
- STRUCTURE_AS_SMILES: "COC(=O)c1cc(/C(=C\\CCN2CCOC2=O)c2cc(C)c3onc(OC)c3c2)cc(C)c1OC"
  RECORDED_RESULT: -0.20
- STRUCTURE_AS_SMILES: "COC(=O)c1cc(/C(=C/CCN2CCOC2=O)c2cc(C)c3onc(OC)c3c2)cc(C)c1OC"
  RECORDED_RESULT: 1.26
- STRUCTURE_AS_SMILES: "COC(=O)c1cc(/C(=C/CCN2CCOC2=O)c2cc(C)c3onc(OC)c3c2)cc(Cl)c1OC"
  RECORDED_RESULT: 0.77

###

assay: Cytotoxicity against human MT4 cells by MTT assay; format: cell-based

- COMPOUND: "Cc1ccnc2c1NC(=O)c1cccnc1N2C1CC1 [NEVIRAPINE]"
  CC50: "> 200 µM"
